# subjectOfTest: BRD4 bromo domain 1 [BRD4(1)] (Homo sapiens)
# Construct: N-terminally His6-tagged BRD4(1) (amino acids 67-152)
# protocolDetails: BRD4(1)/acetylated peptide H4 TR-FRET binding assay
# conditions: His6-BRD4(1) (aa 67-152) vs acetylated histone H4 peptide
# Description: To assess the BRD4(1) binding strength of the substances described in this application, the ability thereof to inhibit the interaction between BRD4(1) and acetylated histone H4 in a dose-dependent manner was quantified. […] In the assay, typically 11 different concentrations of each substance (0.1 nM, 0.33 nM, 1.1 nM, 3.8 nM, 13 nM, 44 nM, 0.15 μM, 0.51 μM, 1.7 μM, 5.9 μM and 20 μM) were analysed as duplicates on the same microtitre plate. […]
resultType: IC50 (nM)

Examples with their reported IC50 follow.
smilesEntry	IC50 [nM]
C[C@@H]1C(=O)N(C)c2ccc(Nc3cccc(N4CCN(C)CC4)c3)nc2N1C1CCOCC1	133
COc1ccc(S(=O)(=O)C(F)(F)F)cc1Nc1ccc2c(n1)N(C1CCN(C)CC1)[C@H](C)C(=O)N2C	23

1: COc1ccc(S(=O)(=O)C2CCOCC2)cc1Nc1ccc2c(n1)N(C1CCN(C)CC1)[C@H](C)C(=O)N2C
2: Cc1cc(Nc2ccc3c(n2)N(C2CCOCC2)[C@H](C)C(=O)N3C)ccn1
Hi, I'm comparing two records. Which one has the lower IC50, 1 or 2 ? Give the label of your selection. 1
(1: 23 nM, 2: 228 nM)
